# METHOD: Evalaution of pharmacokinetic parameters for Glimepiride following single oral […] of Glimepiride tablets […] to healthy subjects and to patients with type 2 diabetes.
# Type: ADME, organism-based
# Parameters: dose 4 mg, dose 1 mg, dose 2 mg, dose 8 mg, route oral
# SETUP CONDITIONS: human, in vivo; dose 1-8 mg, dosed compound id 27, dosed compound name GLIMEPIRIDE, regimen Single dose, route oral, tissue Plasma
PROPERTY: Tmax (h)

> print(dat)
                                   compound  property  measured.number
1  CCC1=C(C)CN(C(=O)NCCc2ccc(S(=O)(=O)NC(=O)N[C@H]3CC[C@H](C)CC3)cc2)C1=O [GLIMEPIRIDE]      Tmax              2.4
